experiment: In vivo toxicological study in rats: haematology; set-up: species or system rats of the Wistar strain; conditions: female, 30 mg/kg oral daily 7 d
Can you tell me MCH for the items I'm about to list?
Give bare numbers, in pg.

| molecule | measureUnit | MCH |
| --- | --- | --- |
| N#Cc1c(NC(=O)c2cccc3ccccc23)sc2c1CCN(C(=O)Nc1ccccc1OC(F)(F)F)C2 | pg | 19.4 |

For every listed record, write down its MCH.
1. COc1ccc(C(=O)Nc2sc3c(c2C#N)CCCCC3)cc1OC
2. N#Cc1c(NC(=O)c2cccc3ccccc23)sc2c1CCN(CC(=O)Nc1cccc(Br)c1)C2
3. COc1ccccc1NC(=O)N1CCc2c(sc(NC(=O)c3cccc4ccccc34)c2C#N)C1

Result:
1. 19.5
2. 18.9
3. 19.5

* * *

Can you tell me LYM for the items I'm about to list?
assay: In vivo toxicological study in rats: haematology; parameters: species or system rats of the Wistar strain; conditions: female, 100 mg/kg oral daily 7 d

| molecule | LYM |
| --- | --- |
| N#Cc1c(NC(=O)c2cccc3ccccc23)sc2c1CCN(CC(=O)Nc1cccc(Br)c1)C2 [PKL-B171] | 4.4 10^9/l |
| N#Cc1c(NC(=O)c2cccc3ccccc23)sc2c1CCN(C(=O)Nc1ccccc1OC(F)(F)F)C2 [PKL-A159] | 5.8 10^9/l |
| COc1ccc(C(=O)Nc2sc3c(c2C#N)CCCCC3)cc1OC [PKL-A135] | 6.7 10^9/l |

Note: attention shifts to another entry.
Reported LYM for COc1ccccc1NC(=O)N1CCc2c(sc(NC(=O)c3cccc4ccccc34)c2C#N)C1 [PKL-A152] was 5.7 10^9/l

* * *

assay: In vivo toxicological study in rats: haematology; parameters: species or system rats of the Wistar strain; conditions: male, 300 mg/kg oral daily 7 d
Can you tell me MCH for the items I'm about to list?
Answers are plain numbers, in pg.

Worked examples follow.
| compound | resultType | measureUnit | reportedResult |
| --- | --- | --- | --- |
| N#Cc1c(NC(=O)c2cccc3ccccc23)sc2c1CCN(C(=O)Nc1ccccc1OC(F)(F)F)C2 [PKL-A159] | MCH | pg | 19.6 |
| COc1ccc(C(=O)Nc2sc3c(c2C#N)CCCCC3)cc1OC [PKL-A135] | MCH | pg | 20.7 |
| N#Cc1c(NC(=O)c2cccc3ccccc23)sc2c1CCN(CC(=O)Nc1cccc(Br)c1)C2 [PKL-B171] | MCH | pg | 19.6 |

Note: attention shifts to another entry.
Reported MCH for COc1ccccc1NC(=O)N1CCc2c(sc(NC(=O)c3cccc4ccccc34)c2C#N)C1 [PKL-A152] was 19.7

* * *

experiment: In vivo toxicological study in rats: haematology; set-up: species or system rats of the Wistar strain; details: male, 100 mg/kg oral daily 7 d
Can you tell me MCHC for the items I'm about to list?
Answers are plain numbers, in g/dL.

Worked examples follow.
| molecule | measureUnit | MCHC |
| --- | --- | --- |
| COc1ccc(C(=O)Nc2sc3c(c2C#N)CCCCC3)cc1OC | g/dL | 33.7 |
| COc1ccccc1NC(=O)N1CCc2c(sc(NC(=O)c3cccc4ccccc34)c2C#N)C1 | g/dL | 33.8 |
| N#Cc1c(NC(=O)c2cccc3ccccc23)sc2c1CCN(C(=O)Nc1ccccc1OC(F)(F)F)C2 | g/dL | 35.3 |

Note: attention shifts to another entry.
Reported MCHC for `N#Cc1c(NC(=O)c2cccc3ccccc23)sc2c1CCN(CC(=O)Nc1cccc(Br)c1)C2` was 35.2

Source: patent US20260234159A1
